test system: SK-MEL-5 melanoma; assay: NCI-60 one-dose screen, 48 h (100 = growth as untreated, 0 = no growth, -100 = all killed); conditions: 10 µM unless noted
The panel holds about 83,000 compounds, 20% with a hit somewhere; the sample as a whole holds those more often.
Threshold check on growth: at or above 20% gives Yes, strictly below gives No.

Compound	Category
COC(=O)[C@@H](C)C[C@H](Cc1ccccc1)NC(=O)c1nc([C@@H](C[C@H](C(C)C)N(C)C(=O)[C@@H](NC(=O)[C@H]2CCCCN2C)C(C)C)OC(C)=O)sc1C	No
CC(=O)OCc1cc[c]([Hg][Cl])o1	Yes
C=CCCCCCCCCC(=O)[O-].C=CCCCCCCCCC(=O)[O-].[Zn+2]	Yes

Say whether COc1ccc(/C=C\c2cc(OC)c(OC)c(OC)c2)cc1NS(=O)(=O)c1ccc(Cl)cc1 shows growth of 20% or more.
Yes

Say whether COc1cc(C=Nc2cc(Cl)cc(Cl)c2)ccc1N(CCCl)CCCl shows growth of 20% or more.
Yes

Say whether CC(=O)O[C@H]1CC[C@H]2[C@@H]3CC=C4c5nc(-c6ccccc6)sc5CC[C@]4(C)[C@H]3CC[C@]12C shows growth of 20% or more.
Yes

Say whether COc1ccc(/C=C\c2cc(OC)c(OC)c(OC)c2)c(NS(=O)(=O)c2ccc(C)cc2)c1O shows growth of 20% or more.
No

Say whether N#CC1C(C#N)C2CCC1C1C2N1c1ccccc1 (configuration not stated) shows growth of 20% or more.
Yes
